- targetUnderTest: human LXRβ (AA 153-461) LBD (Homo sapiens)
- Construct: pM human LXRβ (AA 153-461) LBD plasmid
- Sequence (P55055 153-460 limits assumed): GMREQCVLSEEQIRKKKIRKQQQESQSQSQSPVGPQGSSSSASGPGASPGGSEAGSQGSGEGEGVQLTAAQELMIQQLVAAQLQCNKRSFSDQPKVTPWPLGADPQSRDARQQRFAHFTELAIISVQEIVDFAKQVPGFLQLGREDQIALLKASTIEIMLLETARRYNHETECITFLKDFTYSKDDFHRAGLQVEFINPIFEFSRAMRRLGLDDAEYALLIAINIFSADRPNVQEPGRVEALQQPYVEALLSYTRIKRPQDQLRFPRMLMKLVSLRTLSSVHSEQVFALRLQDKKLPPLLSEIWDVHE
- assayMethodText: Gal4 LXRβ cotransfection assay (LXRβ Gal fusion assay)
- conditionNotes: HEK 293 cells, Gal4-responsive luciferase reporter, compounds 0.01-10 μM
pEC50: −log10 of the molar value.
Here, each record is paired with measured pEC50 data.

Consider the following illustrative entries.
>  <smilesInput>
CS(=O)(=O)c1cccc(-c2nnc(-c3cc(C(=O)O)nn3-c3ccccc3Cl)s2)c1

>  <pEC50>
< 5.00

$$$$
>  <smilesInput>
CSCOC(=O)Cn1nc(C(F)(F)F)cc1-c1ccc(-c2cccc(S(C)(=O)=O)c2)cc1

>  <pEC50>
5.00 to 6.00

$$$$
>  <smilesInput>
CCOC(=O)Cn1nc(C(F)(F)F)cc1-c1ccc(-c2ccc(CO)c(S(C)(=O)=O)c2)s1

>  <pEC50>
> 6.00

$$$$
>  <smilesInput>
CC(C)OC(=O)Cn1nc(C(F)(F)F)cc1-c1ccc(-c2cccc(S(C)(=O)=O)c2)s1

>  <pEC50>
> 6.00

$$$$

Let's switch to this compound now.
Task: I have this compound here, `COC(=O)Cn1nc(C(F)(F)F)cc1-c1ccc(-c2cccc(S(C)(=O)=O)c2)s1` , and I need its recorded pEC50.
Result: < 5.00

----------
Here, each record is paired with measured EC50 data.
- targetUnderTest: human LXRβ (AA 153-461) LBD (Homo sapiens)
- Construct: pM human LXRβ (AA 153-461) LBD plasmid
- assayMethodText: Gal4 LXRβ cotransfection assay (LXRβ Gal fusion assay)
- conditionNotes: HEK 293 cells, Gal4-responsive luciferase reporter, compounds 0.01-10 μM

Consider the following illustrative entries.
>  <smilesInput>
CS(=O)(=O)c1cccc(-c2nnc(-c3cc(C(=O)O)nn3-c3ccccc3Cl)o2)c1

>  <EC50>
> 10000 nM

$$$$
>  <smilesInput>
CS(=O)(=O)c1cccc(-c2ccc(-c3cc(C(F)(F)F)nn3CC(=O)O)cc2)c1

>  <EC50>
> 10000 nM

$$$$
>  <smilesInput>
COC(=O)c1cc(-c2nnc(-c3cccc(S(C)(=O)=O)c3)s2)n(-c2ccccc2Cl)n1

>  <EC50>
1000 to 10000 nM

$$$$

Task: I have this compound here, `CCOC(=O)Cn1nc(C(F)(F)F)cc1-c1ccc(-c2cccc(S(C)(=O)=O)c2)s1` , and I need its recorded EC50.
Result: < 1000 nM

Task: I have this compound here, `CCOC(=O)Cn1nc(C(F)(F)F)cc1-c1ccc(-c2cccc(S(C)(=O)=O)c2)cc1` , and I need its recorded EC50.
Result: < 1000 nM

Task: I have this compound here, `CS(=O)(=O)c1cccc(-c2ccc(-c3cc(C(F)(F)F)nn3CC(=O)OCCl)s2)c1` , and I need its recorded EC50.
Result: < 1000 nM

Task: I have this compound here, `CCOC(=O)Cn1nc(C(F)(F)F)cc1-c1ccc(-c2ccc(CO)c(S(C)(=O)=O)c2)cc1` , and I need its recorded EC50.
Result: < 1000 nM

Task: I have this compound here, `COC(=O)c1cc(-c2nnc(-c3cccc(S(C)(=O)=O)c3)o2)n(-c2ccccc2Cl)n1` , and I need its recorded EC50.
Result: < 1000 nM
